meta.source: the supplement of paper PMC9112550

Tested on: Escherichia coli TOP10;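 further: peptides expressed intracellularly from a pBAD plasmid library in pooled LB shake-flask culture, induced with 0.3% L-arabinose, DNA abundance read by NGS, three biological replicates, DESeq2 with apeglm shrinkage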
assay overview: shrunken log2 fold change of peptide-encoding DNA abundance (4.5 h post-induction vs induction); higher = less antimicrobial activity (less host growth inhibition)
reported conditions: time post-induction: 4.5 h; library: site-saturation at positions 5, 18, 19, 20
# label = condition met if shrunken log2 fold change >= -0.03 else condition not met

The examples below pair each entry with its known result.
In [3]: df
Out[3]:
       biopolymer_sequence     assigned_label
0  RRIRTRPPRLPRPRPRPMIFPRP  condition not met
1  RRIRHRPPRLPRPRPRPMMAPRP      condition met
2  RRIRSRPPRLPRPRPRPGQPPRP      condition met
3  RRIRDRPPRLPRPRPRPFDMPRP      condition met
4  RRIRARPPRLPRPRPRPTAAPRP      condition met
5  RRIRVRPPRLPRPRPRPDPAPRP      condition met
6  RRIRIRPPRLPRPRPRPNPCPRP  condition not met
7  RRIRGRPPRLPRPRPRPWDEPRP      condition met
8  RRIRDRPPRLPRPRPRPEVSPRP      condition met
9  RRIRARPPRLPRPRPRPKWAPRP      condition met

## Input Given `RRIRPRPPRLPRPRPRPMDFPRP` , state whether its shrunken log2 fold change is at least -0.03.
## Output condition not met

## Input Given `RRIRNRPPRLPRPRPRPSAGPRP` , state whether its shrunken log2 fold change is at least -0.03.
## Output condition not met

## Input Given `RRIRLRPPRLPRPRPRPPRWPRP` , state whether its shrunken log2 fold change is at least -0.03.
## Output condition met

## Input Given `RRIRWRPPRLPRPRPRPSEKPRP` , state whether its shrunken log2 fold change is at least -0.03.
## Output condition not met

## Input Given `RRIRSRPPRLPRPRPRPGTVPRP` , state whether its shrunken log2 fold change is at least -0.03.
## Output condition not met

## Input Given `RRIRKRPPRLPRPRPRPCSYPRP` , state whether its shrunken log2 fold change is at least -0.03.
## Output condition not met
